target_of_assay: Kinase A and SpoOF (Bacillus subtilis, UniProt P16497)
Construct: made in house; host or cells: recombinant E. coli (overexpression)
Sequence (P16497 whole entry): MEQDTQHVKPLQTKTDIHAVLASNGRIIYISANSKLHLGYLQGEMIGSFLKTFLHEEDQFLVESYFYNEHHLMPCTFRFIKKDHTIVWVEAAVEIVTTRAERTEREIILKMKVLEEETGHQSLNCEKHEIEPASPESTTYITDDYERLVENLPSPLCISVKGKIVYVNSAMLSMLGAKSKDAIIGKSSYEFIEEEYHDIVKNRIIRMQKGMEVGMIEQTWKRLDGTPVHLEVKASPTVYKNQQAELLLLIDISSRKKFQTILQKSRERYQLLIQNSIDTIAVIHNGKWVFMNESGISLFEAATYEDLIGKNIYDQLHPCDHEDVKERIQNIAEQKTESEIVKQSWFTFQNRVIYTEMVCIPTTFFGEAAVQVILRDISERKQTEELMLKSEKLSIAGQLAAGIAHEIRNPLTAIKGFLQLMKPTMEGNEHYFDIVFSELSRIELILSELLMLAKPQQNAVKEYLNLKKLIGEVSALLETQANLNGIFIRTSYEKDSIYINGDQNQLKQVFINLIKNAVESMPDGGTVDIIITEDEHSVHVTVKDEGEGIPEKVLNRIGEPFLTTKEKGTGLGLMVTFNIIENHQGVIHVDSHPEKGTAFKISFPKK
test_summary: Autophosphorylation of Kinase A and Transphosphorylation of SpoOF Assay (HPK in vitro assay)
Assay type: biochemical
condition_description: inhibition of KinA autophosphorylation / SpoOF transphosphorylation, inhibitor concentrations from 1 to 500 μM
measurement_label: IC50 (µM)

Some entries whose results are on file:
CN1C(=O)C(CCOc2ccc(CCNC(=N)N)cc2)Oc2ccccc21 (stereo not shown)
55
N=C(N)NCCc1ccc(OCCC2Oc3cc([N+](=O)[O-])ccc3N(Cc3ccc([N+](=O)[O-])cc3)C2=O)cc1 (stereo not shown)
53
N=C(N)NCCc1ccc(OCCC2Oc3ccc(N)cc3N(Cc3cccc(Cl)c3)C2=O)cc1 (stereo not shown)
34
Cc1ccc2c(c1)OC(CCOc1ccc(CCNC(=N)N)cc1)C(=O)N2Cc1cccc(Cl)c1 (stereo not shown)
17
COc1ccc2c(c1)OC(CCOc1ccc(CCNC(=N)N)cc1)C(=O)N2Cc1cccc([N+](=O)[O-])c1 (stereo not shown)
32
NCc1ccc(OCCC2Oc3ccccc3N(Cc3cccc(Cl)c3)C2=O)cc1 (stereo not shown)
55
COc1ccccc1CN1C(=O)C(CCOc2ccc(CCNC(=N)N)cc2)Oc2ccccc21 (stereo not shown)
54
NCCc1ccc(OCCC2Oc3ccccc3N(Cc3ccc(C(=O)O)cc3)C2=O)cc1 (stereo not shown)
324

I = N=C(N)NCc1ccc(OCCC2Oc3ccccc3N(Cc3cccc(Cl)c3)C2=O)cc1 (stereo not shown)
II = NCCc1ccc(OCCC2Oc3ccccc3N(Cc3cccc(Cl)c3)C2=O)cc1 (stereo not shown)
III = CC(C)(C)OC(=O)NCc1ccc(OCCC2Oc3ccccc3N(Cc3ccc(Cl)cc3)C2=O)cc1 (stereo not shown)
IV = NCc1cccc(OCCC2Oc3ccccc3N(Cc3ccc(Cl)cc3)C2=O)c1 (stereo not shown)
query: Ascending sort, IC50. The reply should contain the labels ordered as requested.
result: I, II, IV, III
